Data provenance: patent US20260209320A1

- system: T1, Mutant Human HTT Exon 1 48Q (GST) (human)
- T1 construct: recombinant His- and GST-tagged fusion; also called HTT Exon 1 Q48; 48Q HTT Exon-1
- T1 sequence (chain, as listed by the source mutant limits assumed): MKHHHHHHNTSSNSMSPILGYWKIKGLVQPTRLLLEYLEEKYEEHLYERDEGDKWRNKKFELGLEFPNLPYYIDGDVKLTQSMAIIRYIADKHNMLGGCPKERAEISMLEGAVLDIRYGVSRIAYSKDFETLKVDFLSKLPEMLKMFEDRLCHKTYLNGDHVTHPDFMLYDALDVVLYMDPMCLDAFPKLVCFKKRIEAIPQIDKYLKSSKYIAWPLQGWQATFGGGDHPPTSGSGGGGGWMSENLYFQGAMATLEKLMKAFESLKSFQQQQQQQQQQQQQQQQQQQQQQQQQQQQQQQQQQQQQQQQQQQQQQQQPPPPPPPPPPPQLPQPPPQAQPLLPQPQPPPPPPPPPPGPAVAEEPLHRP
- assay protocol: HTT sandwich ELISA; EC50 on HTT Exon 1 25Q over EC50 on HTT Exon 1 48Q
measured attribute: Ratio of EC50 for 25Q:48Q HTT Exon 1

binder	recorded result
ATL_0005895 (antibody, V domains shown, human IgG1; also called ATL_5895; ATL5895) VH: EVQLVESGGGLVKPGGSLRLSCAASGFTFNKAWMSWVRQAPGKGLEWVGRIKSGIDAGTTDYAAPVKGRFTISRDDSKNTLYLQMNSLKTEDTAVYYCIPPPYYYYYGLDVWGQGTTVTVSS VL: QSALTQPRSVSGSPGQSVTISCTGTSSDVGSYNLVSWYQQHPGKAPKLMIYEVNKRPSGVPDRFSGSKSGATASLTISGLQAEDEADYYCGSYAGTANVFGTGTKVTVL	1.79
ATL_0005567 (antibody, V domains shown, human IgG1; also called ATL_5567; ATL5567) VH: EVQLVESGGGLVKPGGSLRLSCAASGFTFNKAWMNWVRQAPGKGLEWVGRIKSGIDGGTTDYAAPVQGRFTISRDDSKNTVYLQMNSLNTEDTAVYYCIPPPYYYYYGLDVWGQGTTVTVSS VL: QSALTQPASVSGSPGQSITISCTGTSSDIGSYNLVSWYQQHPGNAPKPLIYEGSKRPSGVSARFSGSKSGNTASLTISGLQPEDEADYYCSSYAGFSTLVFGGGTKVTVL	1.18
ATL_0005901 (antibody, V domains shown, human IgG1; also called ATL_5901; ATL5901) VH: EVQLVESGGGLVKPGGSLRLSCAASGFTFNKAWMSWVRQAPGKGLEWVGRIKSGIDAGTTDYAAPVKGRFTISRDDSKATLYLQMNSLKTEDTAVYYCIPPPYYYYYGLDVWGQGTTVTVSS VL: QSALTQPASVSGSPGQSITISCTGTSSDVGGYKLVSWYQQHPGRAPKLMIYEVSKRPSGVSSRFSGSKSGSTASLTISGLQAEDEADYYCSSYAGSSVVFGGGTKLTVL	2.05
ATL_0005059/NI-302.8F1 (antibody, V domains shown, also called ATL_5059; CA_0000274) VH: EVQLVESGGGLVKPGGSLTISCAASGFTFSNAWMNWVRQAPGKGLEWVGHIRTQAEGGTSDYAAPVKGRFTISRDDSKNTLYLQMNSLKTEDTAVYYCIPPPYYYYYGLDVWGQGTTVTVSS VL: QSALTQPASVSGSPGQSITISCTGASSDVGTYDLVSWYQQHPGKAPKLIIYEVNKRPSGVSYRFSASKSANTASLTISGLQAEDEAEYYCCSYAGYSTVFGGGTKLTVL	1.12
